These data points were gathered from PubChem BioAssay AID893.

- Target Or Test System: 3-hydroxyacyl-CoA dehydrogenase type-2 (Homo sapiens)
- Assay Method Text: qHTS Assay for Inhibitors of HSD17B4, hydroxysteroid (17-beta) dehydrogenase 4;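 also: the protocol describes HADH2 (HSD17B10) and not the HSD17B4 of the title; nearly all actives have a fitted effect of over 70% in size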
- Conditions: recombinant HSD17B10, NADH fluorescence kinetic; series mostly up to 57.1 µM
Out of some 75,000 compounds screened, about 5,700 (7.6%) were called active. Roughly 7% stayed inconclusive and do not appear here. Calls follow the shape of the dose curve; as a rule, active = well fitted inhibition curve with a large enough effect; inconclusive = small, poorly fitted or top-dose-only effect; inactive = no such curve, though single readings can be large or run the other way. This is one part of a sample in which actives are shown more often than they occur.
In this exercise, the only acceptable responses are 1 (yes) for active, 0 (no) for inactive

In: Can you look up the reported call for "COc1cccc(-c2nc(Nc3ccncc3)c3ccccc3n2)c1" for me?
Out: 0 (no)

In: How did this test come out for CCN1CCCC1CNC(=O)Cn1cnc2ccc(S(=O)(=O)N3CCC(C)CC3)cc2c1=O (centres undefined) ?
Out: 0 (no)

In: Answer briefly: the call reported for "CCCc1nc2ccccc2c(=O)n1NC(=O)c1c(O)c2ccccc2[nH]c1=O" in this assay.
Out: 0 (no)

In: Outcome logged for CCCn1c(-c2ccc(F)cc2)nc2c(NCC3CCCN3CC)nc(C)nc21 (centres undefined) in this assay:
Out: 1 (yes)

In: Short answer needed: outcome of this test for "c1cncc(-c2nc(N3CCNCC3)c3ccccc3n2)c1" ?
Out: 0 (no)

In: Could you check what this test reported for "CCOC(=O)CC1=CC(=O)Nc2ccccc2N1" ?
Out: 0 (no)

In: Hello, I am checking results. What call was entered for CCN1CCCC1CNc1ncnc2c1[nH]c1ccc(F)cc12 (centres undefined) ?
Out: 1 (yes)

In: // outcome(item) with item = "c1ccc2c(Nc3ccncc3)nc(-c3ccoc3)nc2c1"
Out: 1 (yes)

In: Hi team, can someone confirm the assay call for "O=C(Cn1nnc(-c2ccccc2)n1)NCc1ccc2c(c1)OCO2" ?
Out: 0 (no)
